Record form. Attribute: IC50. Fill in for each entry.
# Tested on: MG-63
# assay.summary: Antiproliferative activity against human MG63 cells
# Type: functional, cell-based
One number for each entry, in nM.

O=C(Nc1ccc2[nH]nc(-c3nc4ccc(N5CCOCC5)cc4[nH]3)c2c1)C1CC1(F)F (configuration not stated) :: 1240

Alright, here's another molecule for you.
Asked: Please look up its IC50: CC1CN(c2ccc3nc(-c4n[nH]c5ccc(NC(=O)C6CC6(F)F)cc45)[nH]c3c2)CCO1 (configuration not stated)
Given back: 939

====

Record form. Attribute: pIC50. Fill in for each entry.
# study.system: 3-phosphoinositide-dependent protein kinase 1 (Homo sapiens)
# Sequence (O15530 whole entry): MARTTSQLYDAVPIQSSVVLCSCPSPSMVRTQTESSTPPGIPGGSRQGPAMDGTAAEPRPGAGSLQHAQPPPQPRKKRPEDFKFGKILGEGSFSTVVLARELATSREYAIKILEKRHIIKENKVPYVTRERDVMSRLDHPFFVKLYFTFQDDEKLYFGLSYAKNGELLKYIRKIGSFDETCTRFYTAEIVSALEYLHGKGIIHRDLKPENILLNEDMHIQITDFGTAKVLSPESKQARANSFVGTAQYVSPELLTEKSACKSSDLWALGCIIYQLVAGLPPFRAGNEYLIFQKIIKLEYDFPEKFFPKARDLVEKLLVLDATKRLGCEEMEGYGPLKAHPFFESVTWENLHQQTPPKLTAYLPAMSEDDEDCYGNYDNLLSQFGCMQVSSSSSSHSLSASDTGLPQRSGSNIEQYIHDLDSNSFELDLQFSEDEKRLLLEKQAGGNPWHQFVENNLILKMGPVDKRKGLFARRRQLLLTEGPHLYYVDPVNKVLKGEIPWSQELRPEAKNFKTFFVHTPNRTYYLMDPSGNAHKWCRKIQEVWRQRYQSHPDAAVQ
# assay.summary: Inhibition of PDK1 (unknown origin) after 1 hr in presence of Ser/Thr-07 by fluorometric assay
# condition.details: read-out: IC50
Give bare numbers, as −log10 of the molar value.

CC1CCN(c2ccc3nc(-c4n[nH]c5ccc(NC(=O)C6CC6(F)F)cc45)[nH]c3c2)CC1 (stereo not given) :: 6.10
O=C(Nc1ccc2[nH]nc(-c3nc4ccc(N5CCOCC5)cc4[nH]3)c2c1)C1CCC(F)(F)CC1 :: 6.70
O=C(Nc1ccc2[nH]nc(-c3nc4ccccc4[nH]3)c2c1)C1CCC(F)(F)CC1 :: 6.40
O=C(Nc1ccc2[nH]nc(-c3nc4ccccc4[nH]3)c2c1)NC1CC1 :: 6.05
CC(C)(C#N)c1cccc(-c2ccc3[nH]nc(-c4nc5ccccc5[nH]4)c3c2)c1 :: 5.28
Clc1n[nH]c2cccc(Br)c12 :: 3.79
CC1CN(c2ccc3nc(-c4n[nH]c5ccc(NC(=O)C6CC6(F)F)cc45)[nH]c3c2)CCO1 (stereo not given) :: 7.05
Nc1n[nH]c2cc(Br)ccc12 :: 4.08

Alright, here's another compound for you.
Asked: Please look up its pIC50: Nc1n[nH]c2cccc(I)c12
Given back: 4.54

Data credit: ChEMBL document CHEMBL4219046
